Kindly supply the reported self-cleavage values for the records listed here.
B1: CPEB3 Ribozyme (parent)
chain: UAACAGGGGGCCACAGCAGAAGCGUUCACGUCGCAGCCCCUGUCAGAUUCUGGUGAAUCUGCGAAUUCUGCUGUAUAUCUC

Variants of: B1
Assay: self-cleavage, relative activity (ratio to wild type); higher = more cleavage; in vitro, sequencing
Reply with the value as a number alone.

Task item: Specify reported self-cleavage for the variant shown: "UAACAGGGGGCCACAGCAGAAGCGUUCACGUCGCAGCACCUGUCAGAUUCUGGCGAAUCUGCGAAUUCUGCUGUAUAUCUC"
Reply: 0.29

Task item: Give reported self-cleavage value for "UAACAGGGGGCCACAGCAGAAGCGUUCACGUCACAGCCCCCGUCAGAUUCUGGUGAAUCUGCGAAUUCUGCUGUAUAUCUC"
Reply: 0.39

Task item: Please give the documented self-cleavage of "UAACAGGGGGCCACAGCAGAAGCGUUCACGUAGCAGCCCCUGUCGGAUUCUGGUGAAUCUGCGAAUUCUGCUGUAUAUCUC"
Reply: 0.32

Task item: Give the reported value of self-cleavage for this record: "UAACAGGGGGCCACAGCAGAAGCGUUCACGUCGCAGCCCCUGUCAGAUUCUGAUGAAUCUGCGAACUCUGCUGUAUAUCUC"
Reply: 0.53

Task item: Report self-cleavage, nothing else, for this variant: "UAACAGGGGGCCACAGCAGAAGCGUUCACGUCGCAGCCCCUGUCAGAUUCUGGCGAAUCUGCGAAUUCUGCUGUUUAUCUC"
Reply: 1.2

Task item: Specify self-cleavage for "UAACAGGGGGCCACAGCAGAAGCGUUCACGUCGCUGCCCCUGUAAGAUUCUGGUGAAUCUGCGAAUUCUGCUGUAUAUCUC" and stop.
Reply: 0.16

Task item: Please report the measured self-cleavage for "CAACAGGGGGCCACAGCAGAAGCGUUCACGUCGCAGCCCCUGUCAGAUUCUGGUGAAUCUGCGAAUUCUGCUGUAUUUCUC"
Reply: 0.97

Task item: Return value of self-cleavage for input "UAACAGGGGGCCACAGCAGAUGCGUUCACGUCGCAGCCCCUGUCAGAUUCUGGUGCAUCUGCGAAUUCUGCUGUAUAUCUC" , no commentary.
Reply: 0.18

Task item: Please report the measured self-cleavage for "UAACAGGGGACCACAGCAGAAGCGUUCACGUCGCAGCCCCUGUCAGAUUCUGGUGAAUCUGCGAAUUCGGCUGUAUAUCUC"
Reply: 0.36

Task item: Using the record for "UAACAGGGGGCCACAGCAGAAGUGUUCACGUCGCAGCCCCUGUCAGAUUCAGGUGAAUCUGCGAAUUCUGCUGUAUAUCUC" , state its measured self-cleavage.
Reply: 0.2

Task item: Check the records and state self-cleavage for "UAACAGGGGGCCACAGCAGAGGCGUUCACGUCGCAGCCCCUGUCAGAUUCUGGUGAAUCUGCGAAUUCUGCUGUAUAUCUC"
Reply: 0.64

Task item: Give a short answer stating reported self-cleavage for "UAACAGGGGGGCACAGCAGAAGCGUUCACGUCGCAGCCCCUGUCAGAUUCUGGUGAAUCUGCGAAUUCUUCUGUAUAUCUC" .
Reply: 0.23

Task item: Report self-cleavage for "UAACAGGGGGCCACAGCAGAAGCGUUCACGUCGCAGCCCCUGUCAGAUUCUGGCGAAUCUGCGAAUUCUGCUGGAUAUCUC"
Reply: 1.39

Task item: For the variant "UAACAGGGGGCCACAGCAGAAGCGUUCACGUCGCAGCCCCUGUCAGAUUCUGGUGAAUCUGCGAAUUCUGCUGUGUGUCUC" , give its measured self-cleavage value.
Reply: 0.57

Task item: Respond only with self-cleavage recorded for "CAACAGGGGGCCACAGCAGAAGCGUUCACGUCGCAGCCCCUGUCAGAUUCUGGUGAAUCUGCGAAUUCUGCUGUACAUCUC"
Reply: 0.8

The values you see were collected from the RNAGym collection of RNA variant scans (doi:10.1093/nar/gkz1192).
